// note: IC50 values for MTP (Homo sapiens) were reported in different studies
Labelling: IC50 reported below 5 nM becomes 1 (yes); at or above becomes 0 (no).

| COMPOUND | ANSWER LABEL |
| --- | --- |
| C=CCNC(=O)C(c1ccccc1)N1CCN(c2ccc(NC(=O)c3ccccc3-c3ccc(C(F)(F)F)cc3)cc2)CC1 (stereo not drawn) | 0 (no) |
| O=C(Nc1ccc(N2CCN(C(c3ccccc3)c3noc(-c4ccccc4)n3)CC2)cc1)c1ccccc1-c1ccc(C(F)(F)F)cc1 (stereo not drawn) | 0 (no) |
| CCOC(=O)[C@]1(c2cccc(F)c2)CC[C@@H](C(=O)N2CCC(NC(=O)c3ccccc3OC)CC2)c2cc(F)ccc21 | 1 (yes) |
| COc1ccccc1C(=O)NC1CCN(C(=O)[C@H]2CC[C@@](C(=O)NCCCCCC(=O)OC(C)C)(c3ccccc3)c3ccccc32)CC1 | 1 (yes) |
| COc1ccccc1C(=O)NC1CCN(C(=O)[C@H]2CC[C@@](C(=O)NCCCCC(=O)OC(C)C)(c3ccccc3)c3ccccc32)CC1 | 1 (yes) |
| CCCNC(=O)C1(c2ccccc2)CCC(CN2CCC(NC(=O)c3ccccc3-c3ccc(C(F)(F)F)cc3)CC2)c2ccccc21 (stereo not drawn) | 0 (no) |
| CCOC(=O)[C@]1(c2ccccc2)CC[C@@H](C(=O)N2CCC(NC(=O)c3cc(Cl)c(N)cc3OC)CC2)c2ccccc21 | 0 (no) |
| CCOC(=O)[C@@H](NC(=O)[C@@]1(c2ccccc2)CC[C@H](C(=O)N2CCC(NC(=O)c3cccn(C)c3=O)CC2)c2ccccc21)C(C)C | 0 (no) |
| CCOC(=O)[C@@H]1CCCN1C(=O)[C@@]1(c2ccccc2)CC[C@H](C(=O)N2CCC(NC(=O)c3ccccc3OC)CC2)c2ccccc21 | 0 (no) |
| COc1ccccc1C(=O)NC1CCN(C(=O)[C@H]2CC[C@@](C(=O)N[C@H](Cc3ccccc3)C(=O)OC(C)(C)C)(c3ccccc3)c3ccccc32)CC1 | 0 (no) |
| COC(=O)CNC(=O)[C@@]1(c2ccccc2)CC[C@H](C(=O)N2CCC(NC(=O)c3ccccc3OC)CC2)c2ccccc21 | 1 (yes) |
| CCOC(=O)[C@H]1CCCN1C(=O)[C@@]1(c2ccccc2)CC[C@H](C(=O)N2CCC(NC(=O)c3cccn(C)c3=O)CC2)c2ccccc21 | 0 (no) |
| CCOC(=O)[C@@H]1CCCN1C(=O)[C@@]1(c2ccccc2)CC[C@H](C(=O)N2CCC(NC(=O)c3cccn(C)c3=O)CC2)c2ccccc21 | 0 (no) |
| Cc1cccc(C(=O)Nc2ccc(N3CCN(Cc4cccc(C#N)c4)CC3)cc2)c1-c1ccc(C(C)C)cc1 | 1 (yes) |
| CCOC(=O)[C@]1(c2ccccc2)CC[C@H](C(=O)NCCNC(=O)c2ccccc2-c2ccc(C(F)(F)F)cc2)c2ccccc21 | 0 (no) |
| COc1ccccc1C(=O)NC1CCN(C(=O)[C@H]2CC[C@@](C(=O)NCC(=O)O)(c3ccccc3)c3ccccc32)CC1 | 0 (no) |
| C=CCOC(=O)[C@]1(c2ccccc2)CC[C@@H](C(=O)N2CCC(NC(=O)c3ccccc3-c3ccc(C(F)(F)F)cc3)CC2)c2ccccc21 | 1 (yes) |
| CCOC(=O)[C@]1(c2ccccc2)CC[C@@H](C(=O)N2CCC(NC(=O)c3ccccc3)CC2)c2ccccc21 (racemic) | 1 (yes) |
| COc1ccccc1C(=O)NC1CCN(C(=O)[C@H]2CC[C@@](C(=O)N[C@@H](CCCCNC(=O)OC(C)C)C(=O)OC(C)C)(c3ccccc3)c3ccccc32)CC1 | 1 (yes) |
| CCOC(=O)[C@]1(c2ccccc2)CC[C@@H](C(=O)N(C)CCNC(=O)c2ccccc2OC)c2ccccc21 | 0 (no) |
| Cc1cccc(C(=O)Nc2ccc(N3CCN(CC(N)=O)CC3)cc2)c1-c1ccc(C(C)C)cc1 | 1 (yes) |
